# assay-details: P. aeruginosa biofilm formation inhibitors, primary screen, strain PAO1, LB-PBS medium, absorbance 600 nm (AID 1176); note: test concentration not given here
# experimental-context: P. aeruginosa PAO1 growth/biofilm, A600, 12 h; higher = more signal
In this section, each of the compounds is paired with its reported z-score.
test-readout: z-score

| compound | numeric-result |
| --- | --- |
| Cc1ccc(F)cc1S(=O)(=O)N[C@@H]1CCN(Cc2ccc(CC(C)C)cc2)C1 | 0.294 |
| CC(=O)O[C@H]1C2=C(C(=O)[C@@H]3O[C@@H]31)[C@H]1C(C)O[C@@H]2[C@@]23C(=O)[C@@H]4O[C@@H]4[C@@H](O)C2=CO[C@H](C)[C@@H]13 (some centres not stated) | -0.0812 |
| CO[C@@H]1COC(=O)CCC[C@@H](C)[C@H](OC)COC(=O)[C@H](Cc2ccccc2)NC(=O)CC=C[C@H]1C | -0.291 |
| COc1ccc([Si](C)(C)[C@@H]2[C@@H](CCO)O[C@]3(C(=O)N(Cc4ccc(NC(C)=O)cc4)c4ccccc43)[C@H]2C)cc1 | -0.094 |
| C[C@@H](c1ccccc1)N1C(=O)[C@H]2[C@H]3[C@H](O)C=CC(=O)[C@@H]3CC[C@H]2C1=O | -0.319 |
| O=C1[C@H]2[C@H]3[C@H](O)[C@H](O)CC(=NOCc4ccccc4)[C@@H]3CC[C@H]2C(=O)N1Cc1ccccc1 | -0.377 |
| COC(=O)[C@H](C)NC(=O)CCC1CC(OC(=O)NCCc2ccc(F)cc2)CC2(CCCC(COC(=O)NCCc3ccc(Cl)cc3)O2)O1 (some centres not stated) | 0.45 |
